Hey, just so you know, these numbers are from paper PMC9927415.

Listed here: items and their measured inhibition at 10 µM.
# assayed_target: panel of 203 kinases (Homo sapiens)
# Construct: purchased DiscoverX (KINOMEscan)
# assay_method_text: KINOMEscan competitive binding, whole panel
# study_conditions: 10 µM, n=1; kinase CAMK1D; read-out: Percent inhibition CAMK1D
endpoint: inhibition at 10 µM (%)

{"mol_smiles": "Fc1cccc(COc2ccc(Nc3ncnc4c3CN(CCN3CCOCC3)CC4)cc2Cl)c1", "endpoint_value": 0}
{"mol_smiles": "Cc1ccc(O)cc1N(C)c1ccnc(Nc2cccc(S(N)(=O)=O)c2)n1", "endpoint_value": 70}
{"mol_smiles": "C[C@@H](Oc1cc(-c2cnc3ccccn23)sc1C(N)=O)c1ccccc1Cl", "endpoint_value": 0}
{"mol_smiles": "Cc1ccc(O)cc1Nc1ccnc(Nc2cccc(C(N)=O)c2)n1", "endpoint_value": 0}
{"mol_smiles": "c1ccc(COc2cccc(-c3ccnc4[nH]ccc34)c2)cc1", "endpoint_value": 0}
{"mol_smiles": "Nc1ncc2c(-c3ccncc3)c[nH]c2n1", "endpoint_value": 0}
{"mol_smiles": "COc1ccc(Nc2nccc(-c3cnn4ncccc34)n2)cc1", "endpoint_value": 0}
{"mol_smiles": "COc1cc(Nc2nccc(-c3sc(N)nc3-c3cccc(NC(=O)c4c(F)cccc4F)c3)n2)cc(OC)c1OC", "endpoint_value": 91.8}
{"mol_smiles": "CN1CCN(c2ccc(Nc3nccc(-c4cnn5ncccc45)n3)cc2C#N)CC1", "endpoint_value": 98.3}
{"mol_smiles": "Clc1ccc(Nc2ncc(-c3ccccc3)s2)cc1", "endpoint_value": 0}

====

# assayed_target: panel of 203 kinases (Homo sapiens, UniProt Q9UM73)
# Construct: purchased DiscoverX (KINOMEscan)
# Sequence (Q9UM73 19-1620): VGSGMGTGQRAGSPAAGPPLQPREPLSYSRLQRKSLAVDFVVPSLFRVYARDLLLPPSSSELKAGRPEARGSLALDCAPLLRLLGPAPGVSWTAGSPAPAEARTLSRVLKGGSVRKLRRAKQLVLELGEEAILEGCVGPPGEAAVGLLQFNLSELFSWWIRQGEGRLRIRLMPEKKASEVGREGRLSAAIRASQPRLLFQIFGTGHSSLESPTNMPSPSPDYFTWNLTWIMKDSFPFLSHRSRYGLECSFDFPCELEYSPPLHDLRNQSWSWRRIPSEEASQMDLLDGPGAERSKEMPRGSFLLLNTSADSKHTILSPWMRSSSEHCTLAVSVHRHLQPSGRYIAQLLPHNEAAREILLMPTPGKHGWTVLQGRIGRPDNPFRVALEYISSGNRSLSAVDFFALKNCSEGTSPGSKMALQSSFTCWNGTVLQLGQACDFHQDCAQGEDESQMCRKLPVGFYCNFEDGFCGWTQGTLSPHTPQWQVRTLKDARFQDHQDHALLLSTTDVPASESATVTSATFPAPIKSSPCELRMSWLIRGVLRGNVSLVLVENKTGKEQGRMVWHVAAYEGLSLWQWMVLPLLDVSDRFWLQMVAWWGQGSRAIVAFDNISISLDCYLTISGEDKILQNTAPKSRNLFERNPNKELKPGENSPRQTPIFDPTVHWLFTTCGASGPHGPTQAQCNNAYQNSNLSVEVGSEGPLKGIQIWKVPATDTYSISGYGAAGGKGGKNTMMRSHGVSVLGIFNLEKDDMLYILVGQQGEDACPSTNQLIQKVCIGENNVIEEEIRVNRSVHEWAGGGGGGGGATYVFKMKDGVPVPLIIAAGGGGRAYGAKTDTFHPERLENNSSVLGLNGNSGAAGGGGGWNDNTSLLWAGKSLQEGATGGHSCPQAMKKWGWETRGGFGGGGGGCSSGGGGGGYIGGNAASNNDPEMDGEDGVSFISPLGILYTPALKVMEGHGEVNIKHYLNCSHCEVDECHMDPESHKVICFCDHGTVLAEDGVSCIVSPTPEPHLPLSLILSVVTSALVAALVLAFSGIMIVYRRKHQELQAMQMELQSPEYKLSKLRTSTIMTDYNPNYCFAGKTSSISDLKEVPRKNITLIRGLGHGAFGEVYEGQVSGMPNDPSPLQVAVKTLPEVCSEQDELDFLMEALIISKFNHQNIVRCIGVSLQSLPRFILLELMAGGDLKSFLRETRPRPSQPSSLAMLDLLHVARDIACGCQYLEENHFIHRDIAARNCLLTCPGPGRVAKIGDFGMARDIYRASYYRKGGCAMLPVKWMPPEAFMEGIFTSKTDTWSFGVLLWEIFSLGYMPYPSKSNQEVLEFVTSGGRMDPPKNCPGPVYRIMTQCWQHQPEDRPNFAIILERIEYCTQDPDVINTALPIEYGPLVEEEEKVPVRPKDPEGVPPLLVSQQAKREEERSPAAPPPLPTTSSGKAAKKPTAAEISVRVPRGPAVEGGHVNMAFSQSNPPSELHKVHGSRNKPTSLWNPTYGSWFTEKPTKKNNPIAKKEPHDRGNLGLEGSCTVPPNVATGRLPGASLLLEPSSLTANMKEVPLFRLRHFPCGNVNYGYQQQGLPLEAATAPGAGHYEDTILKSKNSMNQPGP
# assay_method_text: KINOMEscan competitive binding, whole panel
# study_conditions: 10 µM, n=1; kinase ALK; read-out: Percent inhibition ALK

{"compound": "COc1ccc(Nc2nccc(-c3cnn4ncccc34)n2)cc1 [Compound 2]", "assayed_target": "panel of 203 kinases (Homo sapiens, UniProt Q9UM73)", "inhibition at 10 µM [%]": 94.8}
{"compound": "Cc1ccc(O)cc1N(C)c1ccnc(Nc2cccc(S(N)(=O)=O)c2)n1 [Compound 4]", "assayed_target": "panel of 203 kinases (Homo sapiens, UniProt Q9UM73)", "inhibition at 10 µM [%]": 0}
{"compound": "Nc1ncc2c(-c3ccncc3)c[nH]c2n1 [Compound 11]", "assayed_target": "panel of 203 kinases (Homo sapiens, UniProt Q9UM73)", "inhibition at 10 µM [%]": 0}
{"compound": "Cc1ccc(O)cc1Nc1ccnc(Nc2cccc(C(N)=O)c2)n1 [Compound 3]", "assayed_target": "panel of 203 kinases (Homo sapiens, UniProt Q9UM73)", "inhibition at 10 µM [%]": 0}
{"compound": "COc1cc(Nc2nccc(-c3sc(N)nc3-c3cccc(NC(=O)c4c(F)cccc4F)c3)n2)cc(OC)c1OC [Compound 7]", "assayed_target": "panel of 203 kinases (Homo sapiens, UniProt Q9UM73)", "inhibition at 10 µM [%]": 0}
{"compound": "Fc1cccc(COc2ccc(Nc3ncnc4c3CN(CCN3CCOCC3)CC4)cc2Cl)c1 [Compound 6]", "assayed_target": "panel of 203 kinases (Homo sapiens, UniProt Q9UM73)", "inhibition at 10 µM [%]": 0}
{"compound": "c1ccc(COc2cccc(-c3ccnc4[nH]ccc34)c2)cc1 [Compound 9]", "assayed_target": "panel of 203 kinases (Homo sapiens, UniProt Q9UM73)", "inhibition at 10 µM [%]": 0}
{"compound": "C[C@@H](Oc1cc(-c2cnc3ccccn23)sc1C(N)=O)c1ccccc1Cl [Compound 8]", "assayed_target": "panel of 203 kinases (Homo sapiens, UniProt Q9UM73)", "inhibition at 10 µM [%]": 0}
{"compound": "CN1CCN(c2ccc(Nc3nccc(-c4cnn5ncccc45)n3)cc2C#N)CC1 [Compound 1]", "assayed_target": "panel of 203 kinases (Homo sapiens, UniProt Q9UM73)", "inhibition at 10 µM [%]": 99.1}
{"compound": "Clc1ccc(Nc2ncc(-c3ccccc3)s2)cc1 [Compound 10]", "assayed_target": "panel of 203 kinases (Homo sapiens, UniProt Q9UM73)", "inhibition at 10 µM [%]": 0}

====

# assayed_target: YANK2 (Homo sapiens, UniProt Q9NY57)
# Construct: purchased DiscoverX (KINOMEscan)
# Sequence (Q9NY57 whole entry): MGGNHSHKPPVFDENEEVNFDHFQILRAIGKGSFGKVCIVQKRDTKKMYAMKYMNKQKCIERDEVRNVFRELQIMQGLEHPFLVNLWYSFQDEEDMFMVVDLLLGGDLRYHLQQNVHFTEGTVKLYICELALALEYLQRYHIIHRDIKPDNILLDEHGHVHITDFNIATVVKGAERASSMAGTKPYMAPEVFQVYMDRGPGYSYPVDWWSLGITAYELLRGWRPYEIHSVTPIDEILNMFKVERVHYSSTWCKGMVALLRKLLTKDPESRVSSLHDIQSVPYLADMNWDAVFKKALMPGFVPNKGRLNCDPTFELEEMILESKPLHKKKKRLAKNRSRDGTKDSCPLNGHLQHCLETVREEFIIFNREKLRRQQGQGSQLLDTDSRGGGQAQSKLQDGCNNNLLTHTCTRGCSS
# assay_method_text: KINOMEscan competitive binding
# study_conditions: n=1, read-out: Percent inhibition, YANK2
As shown below, each of these compounds has a reported inhibition at 10 µM value.

{"mol_smiles": "Nc1ncc2c(-c3ccncc3)c[nH]c2n1", "inhibition at 10 µM / %": 0}
{"mol_smiles": "COc1ccc(Nc2nccc(-c3cnn4ncccc34)n2)cc1", "inhibition at 10 µM / %": 0}
{"mol_smiles": "Fc1cccc(COc2ccc(Nc3ncnc4c3CN(CCN3CCOCC3)CC4)cc2Cl)c1", "inhibition at 10 µM / %": 0}
{"mol_smiles": "Cc1ccc(O)cc1N(C)c1ccnc(Nc2cccc(S(N)(=O)=O)c2)n1", "inhibition at 10 µM / %": 94.5}
{"mol_smiles": "Cc1ccc(O)cc1Nc1ccnc(Nc2cccc(C(N)=O)c2)n1", "inhibition at 10 µM / %": 0}
{"mol_smiles": "COc1cc(Nc2nccc(-c3sc(N)nc3-c3cccc(NC(=O)c4c(F)cccc4F)c3)n2)cc(OC)c1OC", "inhibition at 10 µM / %": 93}
{"mol_smiles": "CN1CCN(c2ccc(Nc3nccc(-c4cnn5ncccc45)n3)cc2C#N)CC1", "inhibition at 10 µM / %": 0}
{"mol_smiles": "c1ccc(COc2cccc(-c3ccnc4[nH]ccc34)c2)cc1", "inhibition at 10 µM / %": 0}
{"mol_smiles": "C[C@@H](Oc1cc(-c2cnc3ccccn23)sc1C(N)=O)c1ccccc1Cl", "inhibition at 10 µM / %": 0}
{"mol_smiles": "Clc1ccc(Nc2ncc(-c3ccccc3)s2)cc1", "inhibition at 10 µM / %": 0}

====

# assayed_target: panel of 203 kinases (Homo sapiens)
# Construct: purchased DiscoverX (KINOMEscan)
# assay_method_text: KINOMEscan competitive binding, whole panel
# study_conditions: 10 µM, n=1; kinase MARK4; read-out: Percent inhibition MARK4
# Text: The kinases were expressed as fusions to T7 bacteriophage. This is a sensitive, competitive binding assay where test compounds were used to displace immobilized ATP-site binding probe ligands from kinases of interest. The amount of kinase that remained bound to the immobilized probe ligands on the solid support was quantified. Percentage inhibition data were was plotted on kinome trees using the web-based tool KinMap (http://www.kinhub.org/kinmap) ([60]).

{"compound": "Nc1ncc2c(-c3ccncc3)c[nH]c2n1 [Compound 11]", "assayed_target": "panel of 203 kinases (Homo sapiens)", "units": "%", "inhibition at 10 µM": 93.8}
{"compound": "Cc1ccc(O)cc1Nc1ccnc(Nc2cccc(C(N)=O)c2)n1 [Compound 3]", "assayed_target": "panel of 203 kinases (Homo sapiens)", "units": "%", "inhibition at 10 µM": 0}
{"compound": "Cc1ccc(O)cc1N(C)c1ccnc(Nc2cccc(S(N)(=O)=O)c2)n1 [Compound 4]", "assayed_target": "panel of 203 kinases (Homo sapiens)", "units": "%", "inhibition at 10 µM": 0}
{"compound": "C[C@@H](Oc1cc(-c2cnc3ccccn23)sc1C(N)=O)c1ccccc1Cl [Compound 8]", "assayed_target": "panel of 203 kinases (Homo sapiens)", "units": "%", "inhibition at 10 µM": 0}
{"compound": "CN1CCN(c2ccc(Nc3nccc(-c4cnn5ncccc45)n3)cc2C#N)CC1 [Compound 1]", "assayed_target": "panel of 203 kinases (Homo sapiens)", "units": "%", "inhibition at 10 µM": 0}

====

As shown below, each of these compounds has a reported inhibition at 10 µM value.
# assayed_target: panel of 203 kinases (Homo sapiens, UniProt P22455)
# Construct: purchased DiscoverX (KINOMEscan)
# Sequence (P22455 22-802): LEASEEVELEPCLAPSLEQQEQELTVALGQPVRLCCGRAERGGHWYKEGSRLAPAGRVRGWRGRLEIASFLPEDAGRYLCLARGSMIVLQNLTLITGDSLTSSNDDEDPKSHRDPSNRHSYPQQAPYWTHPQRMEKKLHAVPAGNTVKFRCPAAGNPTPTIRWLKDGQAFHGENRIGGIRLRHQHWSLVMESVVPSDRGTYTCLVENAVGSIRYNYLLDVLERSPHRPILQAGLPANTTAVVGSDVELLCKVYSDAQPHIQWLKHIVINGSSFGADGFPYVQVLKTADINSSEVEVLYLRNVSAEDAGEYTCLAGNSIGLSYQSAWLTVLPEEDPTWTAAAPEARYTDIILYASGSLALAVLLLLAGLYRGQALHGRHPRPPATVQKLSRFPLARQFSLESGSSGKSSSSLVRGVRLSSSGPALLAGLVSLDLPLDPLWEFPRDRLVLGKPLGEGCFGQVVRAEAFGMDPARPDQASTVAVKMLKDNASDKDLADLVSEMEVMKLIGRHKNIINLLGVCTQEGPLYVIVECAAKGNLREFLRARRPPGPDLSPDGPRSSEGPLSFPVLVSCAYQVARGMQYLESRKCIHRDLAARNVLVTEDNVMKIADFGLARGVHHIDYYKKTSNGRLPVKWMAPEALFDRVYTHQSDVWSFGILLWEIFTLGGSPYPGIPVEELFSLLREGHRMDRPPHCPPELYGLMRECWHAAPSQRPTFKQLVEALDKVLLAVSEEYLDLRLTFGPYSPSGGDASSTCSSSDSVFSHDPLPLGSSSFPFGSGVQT
# assay_method_text: KINOMEscan competitive binding, whole panel
# study_conditions: 10 µM, n=1; kinase FGFR4; read-out: Percent inhibition FGFR4
endpoint: inhibition at 10 µM (%)

{"compound": "Cc1ccc(O)cc1N(C)c1ccnc(Nc2cccc(S(N)(=O)=O)c2)n1 [Compound 4]", "endpoint_value": 0}
{"compound": "Nc1ncc2c(-c3ccncc3)c[nH]c2n1 [Compound 11]", "endpoint_value": 0}
{"compound": "Cc1ccc(O)cc1Nc1ccnc(Nc2cccc(C(N)=O)c2)n1 [Compound 3]", "endpoint_value": 82.4}
{"compound": "Fc1cccc(COc2ccc(Nc3ncnc4c3CN(CCN3CCOCC3)CC4)cc2Cl)c1 [Compound 6]", "endpoint_value": 0}
{"compound": "CN1CCN(c2ccc(Nc3nccc(-c4cnn5ncccc45)n3)cc2C#N)CC1 [Compound 1]", "endpoint_value": 0}
{"compound": "c1ccc(COc2cccc(-c3ccnc4[nH]ccc34)c2)cc1 [Compound 9]", "endpoint_value": 0}
{"compound": "C[C@@H](Oc1cc(-c2cnc3ccccn23)sc1C(N)=O)c1ccccc1Cl [Compound 8]", "endpoint_value": 0}
{"compound": "COc1cc(Nc2nccc(-c3sc(N)nc3-c3cccc(NC(=O)c4c(F)cccc4F)c3)n2)cc(OC)c1OC [Compound 7]", "endpoint_value": 100}
{"compound": "COc1ccc(Nc2nccc(-c3cnn4ncccc34)n2)cc1 [Compound 2]", "endpoint_value": 0}
{"compound": "Clc1ccc(Nc2ncc(-c3ccccc3)s2)cc1 [Compound 10]", "endpoint_value": 0}
